Task for the reader: assign each of the following substances its reported Count.
test system: Human Myelin PLP; test: Phage display library screening (Example 2, Python script analysis), binding to Human Myelin PLP; settings: combined unique sequence count, Python/R script analysis
Answers are plain numbers.

Sample records with Count:
TRASYPQ (Myelin PLP-binding peptide): 32
IIPPTSV (Myelin PLP-binding peptide): 31
LPHRLNP (Myelin PLP-binding peptide): 27

Dear colleague, could you send me Count for each of the items below? Thanks.
1. GIPSSKN (Myelin PLP-binding peptide)
2. IHHLESS (Myelin PLP-binding peptide)

Ans.
28
32

----------
Kindly state Count for each of the entries shown.
biological target: Human Myelin Basic Protein (Homo sapiens); test: phage display, NGS count
Sequence (P02686 135-304 limits assumed): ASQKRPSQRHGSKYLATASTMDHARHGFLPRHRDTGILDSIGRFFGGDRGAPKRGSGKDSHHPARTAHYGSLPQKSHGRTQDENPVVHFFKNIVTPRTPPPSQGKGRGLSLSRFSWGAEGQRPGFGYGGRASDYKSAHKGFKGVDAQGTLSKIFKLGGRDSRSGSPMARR

Solved entries (count: 2):
WTYHPTT (peptide): 6
WVPDRSL (peptide): 6

// for each substance in input: emit Count
1. YPYVPIY (peptide)
2. VIRTAAM (peptide)
3. FKLPWAS (peptide)
4. NSSPHQI (peptide)
5. NLTYLRF (peptide)

Ans.
6
6
7
7
6

Hi team, please reply with Count for each item in this list.
1. QGAYVRP (peptide)
2. IILPSAQ (peptide)
3. SWFESHN (peptide)
4. IPYSQMP (peptide)
5. DSQEKSV (peptide)

Ans.
6
8
8
6
6

Provide each entry's Count from the list below.
1. SVGLPTK (peptide)
2. HPTGTPT (peptide)
3. TGNLRLY (peptide)
4. SSFYVAY (peptide)
5. VGTFWTR (peptide)
6. FSARTNT (peptide)

Ans.
1: 6; 2: 7; 3: 9; 4: 6; 5: 6; 6: 9

Please give Count for each item listed below.
1. NGPNSLQ (peptide)
2. TGPSSAV (peptide)

Ans.
1. 6
2. 6

----------
For each of the substances below, state its Count.
molecular target: Human Myelin PLP (human) (UniProt P60201); assay: phage display R3, NGS count
Sequence (P60201 2-277 limits assumed): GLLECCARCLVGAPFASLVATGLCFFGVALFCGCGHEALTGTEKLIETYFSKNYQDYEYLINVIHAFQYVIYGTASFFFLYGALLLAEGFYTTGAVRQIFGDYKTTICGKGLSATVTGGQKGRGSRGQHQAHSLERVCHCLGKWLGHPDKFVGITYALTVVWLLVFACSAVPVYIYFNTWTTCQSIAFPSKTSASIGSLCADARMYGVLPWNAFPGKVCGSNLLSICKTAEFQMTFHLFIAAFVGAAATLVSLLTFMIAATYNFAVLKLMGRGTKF
Numbers only.

Sample answers from the record:
ATLKPYR (peptide): 68
LALYARM (peptide): 44

Return reported Count values for all items listed beneath this line.
1. EKPSWTR (peptide)
2. RHNVEFS (peptide)

Ans.
1: 33; 2: 42

----------
molecular target: Human Myelin Basic Protein (Homo sapiens, UniProt P02686); assay: Phage display library screening (Example 2, Python script analysis), binding to Human Myelin Basic Protein; parameters: Enzo 200-606-M001 from human; purchased Enzo 200-606-M001; host or cells: human brain (tissue-derived); settings: R3 Myelin Basic Protein; combined unique sequence count, Python/R script analysis
Sequence (P02686 134-304): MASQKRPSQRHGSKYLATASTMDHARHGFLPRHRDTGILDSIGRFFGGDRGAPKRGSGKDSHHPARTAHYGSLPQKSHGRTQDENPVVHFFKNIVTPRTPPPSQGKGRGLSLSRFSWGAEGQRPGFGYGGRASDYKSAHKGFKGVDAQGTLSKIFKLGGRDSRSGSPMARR
assay endpoint: Count
Numbers only.

Here are 5 substances together with their reported answers.
KGQPLFR (R3 Myelin Basic Protein-binding peptide): 7
FKLPWAS (R3 Myelin Basic Protein-binding peptide): 7
ETHYKIA (R3 Myelin Basic Protein-binding peptide): 6
FVLPNKN (R3 Myelin Basic Protein-binding peptide): 8
ELKSLRF (R3 Myelin Basic Protein-binding peptide): 6

# per-item lookup of Count; items listed below
1. TTTQGHP (R3 Myelin Basic Protein-binding peptide)
2. YSSRLND (R3 Myelin Basic Protein-binding peptide)
3. DVRIWTL (R3 Myelin Basic Protein-binding peptide)
4. HFYGPGP (R3 Myelin Basic Protein-binding peptide)
5. AKFTMWV (R3 Myelin Basic Protein-binding peptide)
6. NMYPRVT (R3 Myelin Basic Protein-binding peptide)

Ans.
[6, 6, 6, 9, 6, 7]

# per-item lookup of Count; items listed below
1. SSGMLSK (R3 Myelin Basic Protein-binding peptide)
2. SPPRFIP (R3 Myelin Basic Protein-binding peptide)

Ans.
[7, 8]

----------
Provide the reported Count Nerve Extract of each item.
tested on: excised human nerve tissue (or nerve extracts); test: Phage display library screening (Example 2), NEB tissue-binding peptides: nerve tissue and nerve extracts versus muscle; conditions: unique sequence count, tissue target: nerve extract, peptides not binding muscle extracts
Answers are plain numbers.

GHAHSLTQNPLF: 18
DELVGGAPWYKS: 27
YANGIEAKDSSR: 20
MLKMERPGRMAY: 15

The record that follows has no Count Nerve Extract shown yet.
Qu. // fetch excised human nerve tissue (or nerve extracts) Count Nerve Extract for "YAGQNGWMRSDL"
Ans. 45

----------
I'd be grateful if you could share measured Count for these entries.
target: Human Myelin Basic Protein (Homo sapiens); test: Phage display library screening (Example 2, Python script analysis), binding to Human Myelin Basic Protein; set-up: Enzo 200-606-M001 from human; purchased Enzo 200-606-M001; host or cells: human brain (tissue-derived); conditions: R3 Myelin Basic Protein; combined unique sequence count, Python/R script analysis
Give bare numbers.

In the examples that follow, each entry is paired with its recorded Count.
SGNLKKA (R3 Myelin Basic Protein-binding peptide): 7
SGPFPLV (R3 Myelin Basic Protein-binding peptide): 6

Please supply Count for each of the following items, keeping them in order.
1. HTGLRSL (R3 Myelin Basic Protein-binding peptide)
2. YTASPRW (R3 Myelin Basic Protein-binding peptide)

Ans.
1: 7; 2: 6

Go through the list and state Count for each entry.
1. GVAEVGL (R3 Myelin Basic Protein-binding peptide)
2. SKLAGFP (R3 Myelin Basic Protein-binding peptide)
3. KYRHGAE (R3 Myelin Basic Protein-binding peptide)
4. VSFTLEP (R3 Myelin Basic Protein-binding peptide)
5. NGPNSLQ (R3 Myelin Basic Protein-binding peptide)
6. GHSHYILGKPTA (R3 Myelin Basic Protein-binding peptide)

Ans.
6
6
7
7
6
7

Qu. Reported Count for YATATPS (R3 Myelin Basic Protein-binding peptide) : what is it?
Ans. 8

----------
I'd appreciate it if you could supply Count values for the items below.
biological target: Human MPZ (human); test: phage display, NGS count
Give bare numbers.

WMTNLDP (peptide): 43
YSSLTSN (peptide): 38
STHEWRT (peptide): 45
WTSVATA (peptide): 41
NTASMTT (peptide): 38

Parameter requested: Count. Apply to each item below.
1. FEHMAVT (peptide)
2. TTWPNTA (peptide)
3. NASVPPK (peptide)

Ans.
[42, 45, 42]

Qu. Form entry - test system: Human MPZ (human); read-out: Count; substance: WPSISRP (peptide)
Ans. 58

----------
Provide the reported Count of each item.
target: Human Myelin Basic Protein (Homo sapiens); assay: phage display, NGS count
Numbers only.

AWSTSSV (peptide): 12
SKPHASH (peptide): 6
SYRSMAP (peptide): 6
HFYGPGP (peptide): 9
QYWDILG (peptide): 6
ALRDTRV (peptide): 6
ALYNQMT (peptide): 6
QPIDSTS (peptide): 7

Provide each entry's Count from the list below.
1. SLKTTNP (peptide)
2. IGTRWHQ (peptide)
3. SPDRTSL (peptide)

Ans.
1. 6
2. 6
3. 12

State the recorded Count for every item in the following list.
1. SPKPDIP (peptide)
2. NLKLWTR (peptide)

Ans.
[6, 7]

For the 4 substances below, give their Count values.
1. MTNHGNA (peptide)
2. WPDLRIL (peptide)
3. INFPFAV (peptide)
4. AILTRPP (peptide)

Ans.
1: 7; 2: 7; 3: 6; 4: 7

----------
tested on: Human Myelin PLP; assay: Phage display library screening (Example 1, Power BI analysis), binding to Human Myelin PLP; details: R3 Myelin PLP, NextGen sequencing count of phage sequences distinct for this target
Mark true only for Count values smaller than 40; exact matches and larger values are false.

Please review the entries below; each comes with its answer.
RFELPAP (R3 Myelin PLP-binding peptide): false
RHNVEFS (R3 Myelin PLP-binding peptide): false
HQGSRTY (R3 Myelin PLP-binding peptide): false
MTPHTSC (R3 Myelin PLP-binding peptide): false
LRFQIPP (R3 Myelin PLP-binding peptide): false

Qu. Determine whether this substance shows Count lower than 40 (ties excluded): GPFLFTV (R3 Myelin PLP-binding peptide)
Ans. false

Qu. # strict comparison: is reported Count < 40? input = NPSHHPR (R3 Myelin PLP-binding peptide)
Ans. true

Qu. Would you kindly verify if Count of FKMPIPT (R3 Myelin PLP-binding peptide) is strictly less than 40?
Ans. true
